conditions: buffer; pH 7.4; 200.0 µM
measured property: log10 solubility kinetic (log10 of the value in µg/mL)
Base-10 log of solubility kinetic, unit µg/mL.

{"compound": "O=C(NC1CC2CCCC(C1)N2C(=O)Nc1ccccc1)c1ccccc1 (stereo not given)", "reading": 0.66}
{"compound": "Cc1cc(C(=O)COc2ccc(C#N)cc2)c(C)n1CC1CCCO1 (stereo not given)", "reading": 1.22}
{"compound": "CCOc1ccc(OCCSc2nc(N)cc(=O)[nH]2)cc1", "reading": 0.61}
{"compound": "CN(Cc1ccccc1)C(=O)COC(=O)/C=C/c1ccc2c(c1)OCO2", "reading": 1.35}
{"compound": "CC(OC(=O)c1ccco1)C(=O)Nc1ncc(Cl)cc1Cl (stereo not given)", "reading": 1.69}

IN: Which log10 solubility kinetic is listed for CNc1ccc(OC)cc1-n1cnc(-c2ccc([N+](=O)[O-])cc2)c1 ?
OUT: -0.22

IN: # query: log10 solubility kinetic of entry Clc1ccc(-c2csc(-c3ccncc3)n2)cc1
OUT: -0.52

IN: I'd like to know its log10 solubility kinetic. The compound in question is CC(C)CCNS(=O)(=O)c1cc2c3c(c1)CCN3C(=O)CC2
OUT: 1.66

IN: // query log10 solubility kinetic value for entry O=C(Nc1ccc2ccccc2c1)c1ccc2[nH]c(=O)c(=O)[nH]c2c1
OUT: 0.63

----------
details: buffer; pH 7.4; 200.0 µM
measured property: solubility kinetic

# count of solved cases: 6
{"compound": "CCc1cccc2c(=O)c(C(=O)NCCCOC)c[nH]c12", "solubility kinetic": "> 43.3 µg/mL"}
{"compound": "c1ccc2sc(NCC3CCCO3)nc2c1 (configuration not stated)", "solubility kinetic": "> 35.1 µg/mL"}
{"compound": "O=C(O)CCC(=O)NNC(=O)c1ccc([N+](=O)[O-])cc1", "solubility kinetic": "> 42.2 µg/mL"}
{"compound": "Cc1cc(C)cc(OCC(=O)N2CCN(c3ncccn3)CC2)c1", "solubility kinetic": "> 49 µg/mL"}
{"compound": "COC(=O)CC1C(=O)NCCN1C(=O)c1ccc(Cl)cc1 (configuration not stated)", "solubility kinetic": "> 46.6 µg/mL"}
{"compound": "CC(C)Nc1nc2cccnc2s1", "solubility kinetic": "> 29 µg/mL"}

Here is another compound to look at.
IN: Which solubility kinetic value belongs to CC1=N/C(=C/c2ccco2)C(=O)O1 ?
OUT: > 26.6 µg/mL

----------
conditions: buffer; pH 7.4; 200.0 µM
measured property: solubility kinetic

Below, each entry is followed by its recorded solubility kinetic result.
{"molecule": "COc1ccc(OC)c(S(=O)(=O)N2CCN(C)CC2c2ccccc2)c1 (stereo not drawn)", "reading": "> 56.5 µg/mL"}
{"molecule": "COc1ccc(C(=O)COC(=O)c2cc(C)no2)c(OC)c1", "reading": "> 45.8 µg/mL"}

Then this molecule:
IN: # solubility kinetic lookup, item Cc1ccc(NC(=O)c2cc3cc(OC(F)(F)F)ccc3[nH]2)cc1
OUT: < 0.4 µg/mL

----------
conditions: buffer; pH 7.4; 200.0 µM
measured property: log10 solubility kinetic (log10 of the value in µg/mL)
// units: µg/mL (pre-log); metric: solubility kinetic; scale: log10

{"compound": "COc1ccccc1CNc1cncnc1", "measured property": "log10 solubility kinetic", "reading": 1.45}

IN: Look at this compound and give its reported log10 solubility kinetic. OCCCc1cn(-c2ccccc2)c2ccccc12
OUT: 1.34

IN: // log10 solubility kinetic lookup, key: O=C(Nc1sc(-c2ccccc2)cc1C(=O)O)c1ccccc1
OUT: 1.65

IN: # input compound: CC1(c2ccc(OCC(N)=O)cc2)NC(=O)NC1=O (stereo unspecified) ; wanted: its log10 solubility kinetic
OUT: 1.55

IN: Could you tell me which log10 solubility kinetic is on file for COc1ccccc1NC(=O)NCCCCc1ccccc1 ?
OUT: 0.72

IN: Reported log10 solubility kinetic for COc1cc(CNCc2ccc3c(c2)OCO3)c([N+](=O)[O-])cc1OC : what is it?
OUT: 1.67

IN: Fill in the blank: the reported log10 solubility kinetic of Cc1c[n+](CC(=O)c2ccccc2)cs1.[Br-] is ____.
OUT: 1.65

IN: Param item = Cc1ccc(CNCCCSc2ncccn2)cc1 ; retrieve measured log10 solubility kinetic.
OUT: 1.56

IN: I would be grateful if you could share the reported log10 solubility kinetic for C/C(Nc1ccccc1C(F)(F)F)=C1/CCOC1=O .
OUT: 1.27

IN: Which log10 solubility kinetic value belongs to Cc1ccccc1OCC(=O)OCC(=O)Nc1ccc(Cl)cn1 ?
OUT: 1.67

----------
details: buffer; pH 7.4; 200.0 µM
List of solubility kinetic values.

{"compound": "CC1=NOC(=O)/C1=C/c1ccc(O)c(Cl)c1", "measured property": "solubility kinetic", "reading": "> 35.6 µg/mL"}
{"compound": "O=C(O)CCNS(=O)(=O)c1ccc2c(c1)CCCC2", "measured property": "solubility kinetic", "reading": "> 42.5 µg/mL"}
{"compound": "Cc1ccccc1OCC(O)CN1CCCCC1.Cl (stereo not given)", "measured property": "solubility kinetic", "reading": "> 42.9 µg/mL"}
{"compound": "Cc1ccc(S(=O)(=O)N2CCN3CCCC3C2)cc1 (stereo not given)", "measured property": "solubility kinetic", "reading": "> 42.1 µg/mL"}

Consider the record given below.
IN: Need solubility kinetic, item O=C(NCc1ccc(Cl)cc1)C1CCN(c2cnccn2)CC1
OUT: > 49.6 µg/mL

----------
conditions: buffer; pH 7.4; 200.0 µM
Each entry below carries its reported solubility kinetic.

The cases that follow already have their solubility kinetic on record.
{"compound": "COc1cccc(N2CCN(C(=O)c3cc(C)oc3C)CC2)c1", "solubility kinetic": "> 47.2 µg/mL"}
{"compound": "O=C(NCC(=O)N1CCN(c2ccccc2)CC1)c1cccs1", "solubility kinetic": "> 49.4 µg/mL"}
{"compound": "Cc1cccc(C(=O)NCC(=O)OCC(=O)c2ccc(C)s2)c1", "solubility kinetic": "> 49.7 µg/mL"}
{"compound": "COc1ccc(N=C2NC(=O)/C(=C/C=C/c3ccccc3)S2)cc1", "solubility kinetic": "< 0.4 µg/mL"}
{"compound": "CCC(C)C12CN3CCN(CC(C)(C3)C1O)C2 (configuration not stated)", "solubility kinetic": "> 35.8 µg/mL"}
{"compound": "Cc1sc2nc(-c3ccc(Br)cc3)oc(=O)c2c1C", "solubility kinetic": "< 0.7 µg/mL"}

Consider now this further compound.
IN: Entry O=C(CS(=O)(=O)c1ccccc1)Nc1nccs1 : reported solubility kinetic = ?
OUT: > 42.3 µg/mL

----------
settings: buffer; pH 7.4; 200.0 µM
measured property: solubility kinetic

{"compound": "Cc1ccccc1NC(=S)NNC(=O)c1ccncc1", "solubility kinetic": "> 43 µg/mL"}

IN: Suppose we examine the compound O=C(COC(=O)COc1ccc(Br)cc1)NCC1CCCO1 (configuration not stated) ; what solubility kinetic value has been reported?
OUT: > 55.8 µg/mL

IN: Find the recorded solubility kinetic belonging to CC(OC(=O)CN1C(=O)c2ccccc2C1=O)C(=O)NC1CCCC1 (configuration not stated) and report it.
OUT: > 51.7 µg/mL

IN: For the compound shown here, O=c1[nH]c(=S)[nH]cc1S(=O)(=O)c1cccc(Cl)c1 , give the reported solubility kinetic.
OUT: > 45.4 µg/mL

IN: Param item = Cc1ccc(NC(=O)CCN2CC(C)OC(C)C2)cc1.Cl (configuration not stated) ; retrieve measured solubility kinetic.
OUT: > 46.9 µg/mL

IN: Name the recorded solubility kinetic for O=C(CN1CCOCC1)NNC(=S)Nc1ccccc1 .
OUT: > 44.2 µg/mL

IN: Which solubility kinetic value belongs to O=C(O)C1CCN(C(=O)CSc2nnc3ccccn23)CC1 ?
OUT: > 48.1 µg/mL

----------
Quick list: solubility kinetic per entry.
conditions: buffer; pH 7.4; 200.0 µM

Some entries whose results are on file:
{"compound": "CCCC(=O)Nc1cc2c3c(c1)CC(=O)N3CCC2", "measured property": "solubility kinetic", "reading": "> 38.7 µg/mL"}
{"compound": "CCOC(=O)CC1C(=O)NCCN1Cc1ccc(OC)c(OC)c1 (configuration not stated)", "measured property": "solubility kinetic", "reading": "> 50.5 µg/mL"}

IN: Given Cc1cccc(C(=O)NCC(=O)N(C)Cc2nc3ccccc3c(=O)[nH]2)c1 , state its recorded solubility kinetic.
OUT: > 54.7 µg/mL

IN: Using the record for CC(OC(=O)Cc1c[nH]c2ccccc12)C(=O)NC1(C#N)CCCCC1 (configuration not stated) , report its solubility kinetic.
OUT: > 53 µg/mL

IN: For CN(C)CC#CCC(O)(c1ccccc1)c1ccccc1 , what is its reported solubility kinetic?
OUT: > 41.9 µg/mL

IN: Given the compound Cc1ccc(CNc2nc3ccccc3n2C)cc1 , what is its reported solubility kinetic?
OUT: > 37.7 µg/mL

IN: Look at this compound and give its reported solubility kinetic. CCNC(=O)c1ccc(N(C)S(=O)(=O)c2cccs2)cc1
OUT: > 48.7 µg/mL
